# System: NKL (IL-2 2.5 ng/mL)
# Test protocol: percent inhibition of viability; higher = more inhibition;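 further: normalised to DMSO-only wells as negative and benzethonium chloride as positive control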
# Condition summary: 72 h; 1 nM
For each record, write down the corresponding percent inhibition of viability.
Answers are plain numbers, in %.

1. CCc1cnn2c(NCc3ccc[n+]([O-])c3)cc(N3CCCC[C@H]3CCO)nc12 [Dinaciclib] (max concentration tested 1000 nM) = 3.07
2. O=C(CCCCCCC(=O)Nc1ccccc1)NO [Vorinostat] (max concentration tested 10000 nM) = -8.87
3. Cc1cccc(-c2nn3c(c2-c2ccnc4ccc(C(N)=O)cc24)CCC3)n1 [Galunisertib] (max concentration tested 1000 nM) = -16.4
4. COc1cc(OC)c(/C=C/S(=O)(=O)Cc2ccc(OC)c(NCC(=O)O)c2)c(OC)c1 [Rigosertib] (max concentration tested 10000 nM) = -16.2
5. C[C@]12CC[C@@H]3c4ccc(O)cc4C[C@@H](CCCCCCCCC[S+]([O-])CCCC(F)(F)C(F)(F)F)[C@H]3[C@@H]1CC[C@@H]2O (stereo partly specified) [Fulvestrant] (max concentration tested 1000 nM) = 1.23

Query (compound): Cn1c(Nc2ccc(C(F)(F)F)cc2)nc2cc(Oc3ccnc(-c4ncc(C(F)(F)F)[nH]4)c3)ccc21 [RAF265] (max concentration tested 1000 nM) ; field requested: percent inhibition of viability
2.04

---

Provide the reported percent inhibition of viability of each item.
# Tested on: NKL (IL-2 2.5 ng/mL)
# Test protocol: percent inhibition of viability; higher = more inhibition
# Condition summary: 72 h; 10 nM
One number for each entry, in %.

Worked cases, percent inhibition of viability given:
1) Cn1c(=O)n(-c2ccc(C(C)(C)C#N)cc2)c2c3cc(-c4cnc5ccccc5c4)ccc3ncc21 [Dactolisib] (max concentration tested 1000 nM) = 36.5
2) Nc1nc(OCc2cc(Br)cs2)c2[nH]cnc2n1 [Lomeguatrib] (max concentration tested 10000 nM) = -6.45

Continue with the next compound.
Report percent inhibition of viability for CC(C)n1cnc2c(NCCc3ccc(O)cc3)nc(-c3csc4ccccc34)nc21 [StemRegenin 1] (max concentration tested 10000 nM) please.
0.88

---

Provide the recorded percent inhibition of viability for the entries that follow.
# System: KHYG-1 (IL-2 2.5 ng/mL)
# Test protocol: percent inhibition of viability; higher = more inhibition
# Condition summary: 72 h; 0.1 nM
Numbers only, in %.

Reference set, count: 6
1. C[C@]12CC[C@@H]3c4ccc(O)cc4C[C@@H](CCCCCCCCC[S+]([O-])CCCC(F)(F)C(F)(F)F)[C@H]3[C@@H]1CC[C@@H]2O (some centres not stated) [Fulvestrant] (max concentration tested 1000 nM) = -10.8
2. NC1(c2ccc(-c3nc4ccn5c(=O)[nH]nc5c4cc3-c3ccccc3)cc2)CCC1 [MK-2206] (max concentration tested 1000 nM) = -0.27
3. CC(C)N(C[C@H]1O[C@@H](n2cnc3c(N)ncnc32)[C@H](O)[C@@H]1O)[C@H]1C[C@@H](CCc2nc3cc(C(C)(C)C)ccc3[nH]2)C1 [EPZ-5676] (max concentration tested 1000 nM) = -0.41
4. Cc1cc(Nc2nc(N[C@@H](C)c3ncc(F)cn3)ncc2Cl)[nH]n1 [AZD1480] (max concentration tested 1000 nM) = 0.27
5. C[C@]12O[C@H](C[C@]1(O)CO)n1c3ccccc3c3c4c(c5c6ccccc6n2c5c31)CNC4=O [Lestaurtinib] (max concentration tested 1000 nM) = -2.95
6. CO[C@H]1C[C@@H]2CC[C@@H](C)[C@@](O)(O2)C(=O)C(=O)N2CCCC[C@H]2C(=O)O[C@H]([C@H](C)C[C@@H]2CC[C@@H](OCCO)[C@H](OC)C2)CC(=O)[C@H](C)/C=C(\C)[C@@H](O)[C@@H](OC)C(=O)[C@H](C)C[C@H](C)/C=C/C=C/C=C/1C [Everolimus] (max concentration tested 100 nM) = -5.06

Next up:
Suppose we examine the compound NC(=O)c1cccc(-c2cccc(OC(=O)NC3CCCCC3)c2)c1 [URB597] (max concentration tested 1000 nM) ; what percent inhibition of viability value has been reported?
-1.98
